Source listed as paper PMC8041284.

target: BTK (Homo sapiens, UniProt Q06187); experiment: biochemical; settings: read-out: BTK inhibition (%), 0.75 uM BTK, […] probe 3l, 15 min preincubation
Sequence (Q06187 402-655 limits assumed): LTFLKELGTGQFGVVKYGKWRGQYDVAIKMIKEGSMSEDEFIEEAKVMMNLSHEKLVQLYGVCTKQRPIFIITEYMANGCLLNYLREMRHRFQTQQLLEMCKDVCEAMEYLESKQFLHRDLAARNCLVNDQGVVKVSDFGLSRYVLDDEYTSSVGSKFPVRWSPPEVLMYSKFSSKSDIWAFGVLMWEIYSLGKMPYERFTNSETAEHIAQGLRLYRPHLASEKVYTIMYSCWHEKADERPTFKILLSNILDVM
result.type: inhibition at 10 µM (%)
Answers are plain numbers, in %.

CC(C)C[C@H](NC(=O)CNC(=O)c1cc(Cl)ccc1Cl)B(O)O    5.4
O=C(Nc1c(Cl)cncc1Cl)c1ccc(OC(F)F)c(OCC2CC2)c1    3.1
CSCC[C@H](N)C(=O)O    -0.9
C=C(C(=O)O)[C@@H]1CC[C@@H](C)[C@@H]2CCC(C)=C[C@@H]21    0
CCCCCCCCCCCCCCCCn1cc[n+](Cc2ccccc2)c1C    -51.7
CO[C@H]1C[C@@H]2CC[C@@H](C)[C@@](O)(O2)C(=O)C(=O)N2CCCC[C@H]2C(=O)O[C@H]([C@H](C)C[C@@H]2CC[C@H](n3cnnn3)[C@H](OC)C2)CC(=O)[C@H](C)/C=C(\C)[C@@H](O)[C@@H](OC)C(=O)[C@H](C)C[C@H](C)/C=C/C=C/C=C/1C    3.4
N#CC[C@@H](C1CCCC1)n1cc(-c2ncnc3[nH]ccc23)cn1    15.9
N#Cc1ccc2ncnc(NCCc3ccccc3)c2c1    -30.3

Now take the following compound into account.
Query: Indicate the recorded inhibition at 10 µM value for this compound: C[C@H]1c2cccc(O)c2C(O)=C2C(=O)[C@]3(O)C(O)=C(C(N)=O)C(=O)[C@@H](N(C)C)[C@@H]3[C@@H](O)[C@@H]21
Result: -21.6
